From: PubChem BioAssay (NCATS)

max response for assorted molecules
METHOD DESCRIPTION: qHTS Assay for Identifying Gametocytocidal Compounds (AID 743244);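 also: % is scaled to controls: 0 for no effect and ±100 for the full control effect; actives lower the fluorescent signal which means gametocytes are killed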
SETTINGS: P. falciparum 3D7 stage III-V gametocytes, alamarBlue, 72 h; active compounds read low
Records with an inconclusive call do not appear.
Your answer should be a plain number; it is taken to be in %.

MOLECULE	READOUT KIND	REPORTED VALUE
CCOC(=O)COc1ccc2c(C)c(CCN(CC)CC)c(=O)oc2c1	max response	15
C[C@H]1C[C@@H]2[C@H]([C@@H](O)C[C@@]3(C)[C@H]2CC[C@]3(O)C(=O)COC(=O)CCC(=O)O)[C@@]2(C)C=CC(=O)C=C12	max response	-6.5
CCCCCCCC(=O)CC[C@@H]1[C@@H](C/C=C\CCCC(=O)OC(C)C)[C@@H](O)C[C@H]1O	max response	0.0052
O=c1[nH]cnc2[nH]cc(CN3CCCCC3)c12	max response	10.8
NCCCC[C@H](NC(=O)[C@@H]1CCCN1C(=O)[C@@H]1CSSC[C@H](N)C(=O)N[C@@H](Cc2ccccc2)C(=O)N[C@@H](Cc2ccccc2)C(=O)N[C@@H](CCC(N)=O)C(=O)N[C@@H](CC(N)=O)C(=O)N1)C(=O)NCC(N)=O	max response	-4.07

// moving on: another record for max response
Task: Please look at this molecule and report its max response: CCCN(CC)C(CC)C(=O)Nc1c(C)cccc1C (stereo not drawn)
Result: 0.657

* * *

METHOD DESCRIPTION: Primary qHTS for inhibitors of nuclear receptor binding SET domain protein 2 (NSD2) in an RCH-ACV wild type WT cells (2C) (AID 1645877); also: nearly all actives have a fitted effect of over 70% in size
SETTINGS: RCH-ACV (leukaemia line) NSD2 WT (2C) viability, CellTiter-Glo, 72 h; series mostly up to 44.9 µM
Inconclusive results are not listed. Active and inactive are the calls of the source. Calls follow the shape of the dose curve; as a rule, active = well fitted inhibition curve with a large enough effect; inconclusive = small, poorly fitted or top-dose-only effect; inactive = no such curve, though single readings can be large or run the other way.
// allowed return values: label 1 (active), label 0 (inactive)

Task: Kindly provide the recorded test outcome for the following compound: CCOc1cn(-c2ccc(F)cc2C)nc1C(=O)Nc1ccc(Oc2ccnc3cc(OC)c(OC)cc23)c(F)c1
Result: label 1

Task: Per the assay record, what outcome was assigned to C=C(NC(=O)C(=C)NC(=O)c1csc(C2=NC3c4csc(n4)C4NC(=O)c5csc(n5)C(C(C)(O)C(C)O)NC(=O)C5CSC(=N5)/C(=C/C)NC(=O)C(C(C)O)NC(=O)c5csc(n5)C3(CC2)NC(=O)C(C)NC(=O)C(=C)NC(=O)C(C)NC(=O)C(C(C)CC)NC2C=Cc3c(C(C)O)cc(nc3C2O)C(=O)OC4C)n1)C(N)=O (stereo not drawn) ?
Result: label 1

Task: How was CC(C)(C)Oc1ccc(OCC2Cc3ccccc3CN2C(=O)c2cccc3ccccc23)cc1 (stereo not drawn) classified in this test?
Result: label 0

* * *

Listing of entries alongside the reported Potency.
METHOD DESCRIPTION: Drug repurposing screens with cells derived from glioblastoma tumor samples (AID 1345199); also: potency is read from the fitted curve at half-maximal effect; nearly all actives have a fitted effect of over 40% in size
SETTINGS: GBM patient neurospheres viability, ATP luminescence, 48 h; tumour line A
Inconclusive results are not listed. Activity calls are given as the source filed them. Calls follow the shape of the dose curve; as a rule, active = well fitted inhibition curve with a large enough effect; inconclusive = small, poorly fitted or top-dose-only effect; inactive = flat fitted curve, though single readings scatter.

Task: Quickly give me recorded Potency for COc1ccnc(CS(=O)c2nc3cc(OC(F)F)ccc3[nH]2)c1OC (stereo not drawn)
Result: 28.2 µM (active)

Task: Query Potency for CCCCCCCCCCCCCCCC(=O)O[C@@H]1CC(C)=C(/C=C/C(C)=C/C=C/C(C)=C/C=C/C=C(C)/C=C/C=C(C)/C=C/C2=C(C)C[C@@H](OC(=O)CCCCCCCCCCCCCCC)CC2(C)C)C(C)(C)C1
Result: 11.2 µM (active)

Task: Answer with the recorded Potency of O=C(CCCN1CCC(n2c(=S)[nH]c3ccccc32)CC1)c1ccc(F)cc1 only.
Result: 8.91 µM (active)

Task: Please supply the value of reported Potency for the item Cc1ccc(C2(O)CCN(CCCC(=O)c3ccc(F)cc3)CC2)cc1
Result: 6.31 µM (active)

Task: Report Potency, nothing else, for this compound: CCC(=O)OCC(=O)[C@@]1(OC(=O)CC)[C@@H](C)C[C@H]2[C@@H]3CCC4=CC(=O)C=C[C@]4(C)[C@@]3(Cl)[C@@H](O)C[C@@]21C
Result: 10 µM (active)

Task: Using the record for CCCC(=O)O[C@]1(C(=O)COC(=O)CC)[C@@H](C)C[C@H]2[C@@H]3CCC4=CC(=O)C=C[C@]4(C)[C@@]3(F)[C@@H](O)C[C@@]21C , state its measured Potency.
Result: 12.6 µM (active)

Task: Check the records and state Potency for CCCCCCCCCCCCCCCC(=O)OC/C=C(C)/C=C/C=C(C)/C=C/C1=C(C)CCCC1(C)C
Result: 20 µM (active)

Task: Indicate the recorded Potency value for this compound: C=C1C(=C/C=C2\CCC[C@]3(C)[C@@H]([C@H](C)CCCC(C)(C)O)CC[C@@H]23)C[C@@H](O)C[C@@H]1O
Result: 17.8 µM (active)

* * *

Tested on: HeLa
METHOD DESCRIPTION: Primary qHTS to identify gynecologic anti-cancer compounds using libraries of approved drugs and bioactive compounds (AID 1345084); also: nearly all actives have a fitted effect of over 55% in size
SETTINGS: Gynecologic cancer cell panel viability, ATPlite luminescence, 48 h; series mostly up to 57.5 µM
From the text: National Center for Advancing Translational Sciences [NCATS] Assay Overview: Chemotherapeutic drug responses vary from cancer to cancer and from patient to patient. […] ATPlite is a luminescence based assay reliant on the conversion of a luciferase substrate to light in the presence of ATP. As a cytotoxic compound will suppress growth and decrease the number of cells, the concentration of ATP will decrease, and less light signal will be detected in the well. […]
Inconclusive results are not listed. Active and inactive are the calls of the source. The call rests on the fitted dose curve; in most records, active means well fitted cell-killing curve with a large enough effect; inconclusive means small, poorly fitted or top-dose-only effect, or effect the other way; inactive means flat fitted curve, though single readings scatter.
Bench note: report the call from Yes for active, No for inactive

Example results:
COMPOUND	CLASS ASSIGNMENT
CCNC1(C(N)=O)CN(c2nc(C)nc3c(-c4ccc(Cl)cc4)c(-c4ccccc4Cl)nn23)C1	No
O=C(Nc1ccc(Cl)cc1)c1ccccc1NCc1ccncc1	No
COc1ccc(C2(CNC(=O)c3ccc(NC(=O)c4ccco4)cc3)CCOCC2)cc1	No
O=C(Nc1nnc(-c2ccc3c(c2)OCCO3)o1)C1CCCCC1	No
Cc1ccc(-c2cn3c4c(sc3n2)CCCC4)cc1	Yes
O=[N+]([O-])c1ccc(Oc2ccc3c(c2)CCC(c2ccccc2)O3)nc1 (centres undefined)	No

Task: Assay outcome for NC(N)=N/N=C/c1ccccc1Cl : what was it?
Result: No

Task: Name the outcome recorded for C[C@@H](N[C@H]1CCCC[C@@H]1NC(=O)c1ccc(Cl)cc1)c1cccc2ccccc12 in the assay.
Result: No

Task: What was the test verdict on C=CC(=O)Nc1cccc(Nc2nc(Nc3ccc(OCCOC)cc3)ncc2F)c1 ?
Result: Yes

Task: Tell me the recorded outcome of this test for CCC(C)C(=O)OC12C(OC(C)=O)C(C)C3(O)C(C=C(CO)CC4(O)C(=O)C(C)=CC43)C1C2(C)C (centres undefined) .
Result: No

Task: Please let me know the test result on file for COc1cc(O)cc(OC2OC(CO)C(O)C(O)C2O)c1 (centres undefined) .
Result: No

* * *

Test system: OV90
METHOD DESCRIPTION: Primary qHTS to identify gynecologic anti-cancer compounds using libraries of approved drugs and bioactive compounds (AID 1345084); also: nearly all actives have a fitted effect of over 55% in size
SETTINGS: Gynecologic cancer cell panel viability, ATPlite luminescence, 48 h; series mostly up to 57.5 µM
Inconclusive results are not listed. Activity calls are given as the source filed them. Calls come from the whole dose curve; as a rule, active = well fitted cell-killing curve with a large enough effect; inconclusive = small, poorly fitted or top-dose-only effect, or effect the other way; inactive = flat fitted curve, though single readings scatter.
Entry note: the call must match one of yes (1) (active), no (0) (inactive)

                                   compound   tgt  class_assignment
0  O=C1NC(=O)C(c2cnc3ccccn23)=C1c1cn2c3c(cc(F)cc13)CN(C(=O)N1CCCCC1)CC2  OV90            no (0)

Task: Write down the call the test reported for this compound. Item: C[C@H](CN(C)C)Oc1nc(Nc2cc3cccc(Cl)c3cn2)cnc1C#N
Result: no (0)

Task: Check the results log: what was the call for C/C=C/C=C/C=C/C(=O)O[C@@H]1C=C(CO)C(O)(C(=O)OC)[C@@]2(C)CCCC(C)(C)C12 (stereo partly drawn) ?
Result: no (0)

Task: State the result this test recorded for CCC[C@@]1(CCc2ccccc2)CC(O)=C([C@H](CC)c2cccc(NS(=O)(=O)c3ccc(C(F)(F)F)cn3)c2)C(=O)O1 .
Result: no (0)

Task: Given CO[C@@H]1[C@H](O)CCC2(CO2)[C@H]1[C@@]1(C)O[C@@H]1CC=C(C)C (stereo partly drawn) , state the outcome it received in this test.
Result: no (0)

Task: // return assay outcome for CC(=O)O[C@@H]1CC2C(/C=C(\C)C(=O)[C@@]3(O)C[C@@H](C)[C@H](OC(=O)c4ccccc4)C3/C=C/1C)C2(C)C (stereo partly drawn)
Result: no (0)

Task: For Clc1ncoc1-c1c[nH]c2ccccc12 , what call appears in the results of this test?
Result: no (0)

Task: Query: recorded result category for C/C=C/C=C/C(=O)O[C@@H]1C=C2COC(=O)[C@]2(O)[C@@]2(C)CCCC(C)(C)[C@H]12 in this test
Result: no (0)

Task: Returns: the outcome recorded for O=C(Nc1ccc(-n2nc(C(F)(F)F)cc2C(F)(F)F)cc1)c1ccncc1F in this assay.
Result: no (0)

Task: What classification did COc1cc(F)c(C(C)C)cc1-c1ccc(C(F)(F)F)cc1CN1C(=O)OC(c2cc(C(F)(F)F)cc(C(F)(F)F)c2)C1C (stereo not drawn) end up with in this test?
Result: no (0)

Task: Identify the outcome logged in this assay for the compound shown: Cc1cc2c(c(=O)o1)C=C1CC[C@H]([C@H](C)Cn3cnc(=N)c4[nH]cnc43)C[C@@H]1O2
Result: no (0)

Task: Hey, what did the test say about CC1CCCC(O)CC(=O)c2c(O)cc(O)cc2CC(=O)O1 (stereo not drawn) ?
Result: no (0)

Task: What did the test return for CCCCc1c(-c2ccc(OC)cc2)[nH]c2nccnc12 ?
Result: no (0)

Task: So what was the verdict on Cc1cc(NC(=O)NCCN2CCC(O)(Cc3ccccc3)CC2)c2ccccc2n1 in this test?
Result: no (0)
